Readings of Ki for the listed molecules
# testTarget: UniProtKB P28221
# Sequence (P28221 whole entry): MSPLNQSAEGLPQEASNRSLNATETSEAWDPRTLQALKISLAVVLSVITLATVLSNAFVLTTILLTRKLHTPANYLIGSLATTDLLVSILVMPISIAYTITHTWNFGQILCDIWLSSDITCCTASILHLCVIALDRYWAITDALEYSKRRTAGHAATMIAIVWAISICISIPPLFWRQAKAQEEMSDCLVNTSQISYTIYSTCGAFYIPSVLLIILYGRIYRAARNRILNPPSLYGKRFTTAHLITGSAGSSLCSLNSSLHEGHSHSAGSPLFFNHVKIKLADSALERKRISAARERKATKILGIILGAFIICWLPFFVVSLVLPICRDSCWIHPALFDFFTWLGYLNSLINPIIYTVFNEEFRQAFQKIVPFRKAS
Structures can show the parent of a compound that is named as a salt.

{"columns": ["molecule", "Ki (µM)"],
 "data": [
  ["CN1CCCC(n2nc(Cc3ccc(Cl)cc3)c3ccccc3c2=O)CC1 (stereo not drawn) [AZELASTINE HYDROCHLORIDE]", 0.885],
  ["OCc1cc(C(O)CNCCCCCCOCCCCc2ccccc2)ccc1O (stereo not drawn) [SALMETEROL]", 1.04],
  ["CN(C)C(=O)C(CCN1CCC(O)(c2ccc(Cl)cc2)CC1)(c1ccccc1)c1ccccc1 [LOPERAMIDE HYDROCHLORIDE]", 2.6]
]}

---

# testTarget: 5-hydroxytryptamine receptor 5A (Homo sapiens, UniProt P47898)
# Sequence (P47898 whole entry): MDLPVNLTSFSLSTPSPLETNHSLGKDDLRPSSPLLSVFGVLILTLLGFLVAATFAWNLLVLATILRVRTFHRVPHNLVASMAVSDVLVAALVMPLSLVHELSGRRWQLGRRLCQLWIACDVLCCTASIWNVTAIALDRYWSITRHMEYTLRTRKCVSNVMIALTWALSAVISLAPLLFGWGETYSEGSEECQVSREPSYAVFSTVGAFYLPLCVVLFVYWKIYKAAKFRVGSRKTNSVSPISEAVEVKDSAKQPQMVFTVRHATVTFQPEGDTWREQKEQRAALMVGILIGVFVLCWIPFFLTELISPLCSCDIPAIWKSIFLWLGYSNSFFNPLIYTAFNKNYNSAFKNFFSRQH
Counter-ions that a name gives are not always drawn.
Cut-off 2 µM on Ki: below means Yes, at or above means No.

{"columns": ["compound", "answerLabel"],
 "data": [
  ["CC(C)[C@H](CO)Nc1nc(Nc2cccc(Cl)c2)c2ncn(C(C)C)c2n1", "No"],
  ["CC(C)NCC(O)COc1cccc2[nH]ccc12 (stereo not given)", "No"],
  ["COc1cccc([C@@H](C)NCCCc2ccccc2Cl)c1 [TECALCET HYDROCHLORIDE]", "Yes"],
  ["CNc1nc(NCc2ccc(NS(C)(=O)=O)cc2Cl)cc(-c2ccccn2)n1", "No"],
  ["O=C(O)c1n[nH]c2c1C[C@H]1C[C@@H]21", "No"],
  ["CCc1nn(CCCN2CCN(c3cccc(Cl)c3)CC2)c(=O)n1CCOc1ccccc1 [NEFAZODONE HYDROCHLORIDE]", "Yes"],
  ["Cc1nn(C)c(C)c1-c1cccc2c1CC[C@H](N(C)C)C2", "Yes"],
  ["CN(C)C(=O)N[C@H]1CC[C@H](CCN2CCN(c3cccc(Cl)c3Cl)CC2)CC1 [CARIPRAZINE HYDROCHLORIDE]", "No"],
  ["C[C@@H](NCCCc1cccc(C(F)(F)F)c1)c1cccc2ccccc12 [CINACALCET HYDROCHLORIDE]", "Yes"],
  ["CN1C[C@H](C(=O)N[C@]2(C)O[C@@]3(O)[C@@H]4CCCN4C(=O)[C@H](Cc4ccccc4)N3C2=O)C[C@@H]2c3cccc4[nH]cc(c34)C[C@H]21 [DIHYDROERGOTAMINE MESYLATE]", "Yes"]
]}

---

# testTarget: Beta-2 adrenergic receptor (Homo sapiens, UniProt P07550)
# Sequence (P07550 whole entry): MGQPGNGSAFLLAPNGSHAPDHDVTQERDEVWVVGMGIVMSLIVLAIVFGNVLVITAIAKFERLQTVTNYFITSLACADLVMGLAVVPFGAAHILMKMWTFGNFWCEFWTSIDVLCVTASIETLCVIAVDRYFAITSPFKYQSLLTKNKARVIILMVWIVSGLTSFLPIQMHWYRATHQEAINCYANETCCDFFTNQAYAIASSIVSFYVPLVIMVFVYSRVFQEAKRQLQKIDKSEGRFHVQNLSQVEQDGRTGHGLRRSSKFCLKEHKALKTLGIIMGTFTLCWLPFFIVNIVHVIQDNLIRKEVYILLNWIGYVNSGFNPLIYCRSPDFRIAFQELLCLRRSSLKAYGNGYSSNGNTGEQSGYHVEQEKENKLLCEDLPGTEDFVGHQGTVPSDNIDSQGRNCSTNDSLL
Structures can show the parent of a compound that is named as a salt.
// boundary case: Ki equal to 1000 nM maps to 0.0; strictly smaller maps to 1.0

{"columns": ["molecule", "answerLabel"],
 "data": [
  ["Cc1cn2cc(CC(=O)N3CCC4(CC3)CN(Cc3ccc(-n5nccn5)cc3Cl)C4)nc2s1", 0.0],
  ["CN1CCN(c2ccc(Nc3c4ccccc4nc4ccccc34)cc2)CC1", 1.0],
  ["CCc1cc2c(cc1CC)CC(NC[C@H](O)c1ccc(O)c3[nH]c(=O)ccc13)C2", 1.0],
  ["O=c1ccc2ccc(OCCCCN3CCN(c4cccc5sccc45)CC3)cc2[nH]1", 1.0],
  ["CS(=O)(=O)NC[C@H]1CC[C@H](Nc2nc3c(s2)CCSc2ccccc2-3)CC1", 0.0],
  ["N#Cc1ccc2[nH]cc(CCCCN3CCN(c4ccc5oc(C(N)=O)cc5c4)CC3)c2c1 [VILAZODONE HYDROCHLORIDE]", 0.0],
  ["O=C(O)C1CN(Cc2ccc(-c3nc4cc(Cc5ccccc5F)ccc4s3)c(F)c2)C1", 0.0]
]}
